Form field: viability, T/C (one value per entry).
System: A375 multi-cell spheroids with HUVEC/MSC, viability
Assay: Anticancer human tumor A375 cell line growth inhibition [GQUAD];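 also: spheroids exposed to compounds for seven days before readout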
Details: second compound 1 µM; first compound 3.16 µM; stronger effect = lower value

- molecule: "CC(=O)O[C@H]1C(=O)[C@@]2(C)[C@H]([C@H](OC(=O)c3ccccc3)[C@]3(O)C[C@H](OC(=O)[C@H](O)[C@@H](NC(=O)c4ccccc4)c4ccccc4)C(C)=C1C3(C)C)[C@]1(OC(C)=O)CO[C@@H]1C[C@@H]2O + CN(C)c1ccc(Nc2c3ccc(NC(=O)CCN4CCCC4)cc3nc3cc(NC(=O)CCN4CCCC4)ccc23)cc1"
  viability, T/C, %: 10.4
- molecule: "O=C(NO)c1cnc(N2CCN(S(=O)(=O)c3ccc4ccccc4c3)CC2)nc1 + Cc1[nH]c2ccc(F)cc2c1-c1nc2c3cccnc3c3ncccc3c2[nH]1"
  viability, T/C, %: 0.15
- molecule: "COc1ccc([C@@H](O)c2cc(-c3ncnc4cc(N5CCOCC5)ccc34)c(F)cc2Cl)nn1 + CN(C)c1ccc(Nc2c3ccc(NC(=O)CCN4CCCC4)cc3nc3cc(NC(=O)CCN4CCCC4)ccc23)cc1"
  viability, T/C, %: 97.6
- molecule: "CC(C)(O)C1CCC(Nc2ccc3ncc(-c4cccc(C(F)(F)F)c4)n3n2)CC1 (configuration not stated) + Cc1cnc(CNC(=O)c2c(=O)c3ccc(N4CCCN(C)CC4)nc3n3c2sc2ccccc23)cn1"
  viability, T/C, %: 27.6
- molecule: "CC(C)(O)C1CCC(Nc2ccc3ncc(-c4cccc(C(F)(F)F)c4)n3n2)CC1 (configuration not stated) + Cc1[nH]c2ccc(F)cc2c1-c1nc2c3cccnc3c3ncccc3c2[nH]1"
  viability, T/C, %: 47.4
- molecule: "CC1COCCN1c1cc(C2(O)CC3CCC(C2)O3)c2cnn(-c3ccn[nH]3)c2n1 (configuration not stated) + CN(C)c1ccc(Nc2c3ccc(NC(=O)CCN4CCCC4)cc3nc3cc(NC(=O)CCN4CCCC4)ccc23)cc1"
  viability, T/C, %: 11.7
- molecule: "C#Cc1c(F)ccc2cc(O)cc(-c3ncc4c(N5CC6CCC(C5)N6)nc(OCC56CCCN5CC(F)C6)nc4c3F)c12 (configuration not stated) + CN(C)c1ccc(Nc2c3ccc(NC(=O)CCN4CCCC4)cc3nc3cc(NC(=O)CCN4CCCC4)ccc23)cc1"
  viability, T/C, %: 107

###

Below, each entry is listed with its recorded viability, T/C.
Test system: A375 multi-cell spheroids with HUVEC/MSC, viability
Test: Anticancer human tumor A375 cell line growth inhibition [GQUAD];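 also: spheroids exposed to compounds for seven days before readout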
Settings: second compound 10 µM; first compound 0.1 µM; stronger effect = lower value

- compound: "CC(C)(O)C1CCC(Nc2ccc3ncc(-c4cccc(C(F)(F)F)c4)n3n2)CC1 (stereo unspecified) + CN(C)c1ccc(Nc2c3ccc(NC(=O)CCN4CCCC4)cc3nc3cc(NC(=O)CCN4CCCC4)ccc23)cc1"
  viability, T/C (%): 91.2
- compound: "O=C(c1cc(Cc2n[nH]c(=O)c3ccccc23)ccc1F)N1CCN(C(=O)C2CC2)CC1 + Cc1[nH]c2ccc(F)cc2c1-c1nc2c3cccnc3c3ncccc3c2[nH]1"
  viability, T/C (%): 90.5
- compound: "C#Cc1c(F)ccc2cc(O)cc(-c3ncc4c(N5CC6CCC(C5)N6)nc(OCC56CCCN5CC(F)C6)nc4c3F)c12 (stereo unspecified) + CN(C)c1ccc(Nc2c3ccc(NC(=O)CCN4CCCC4)cc3nc3cc(NC(=O)CCN4CCCC4)ccc23)cc1"
  viability, T/C (%): 102
- compound: "CC(=O)O[C@H]1C(=O)[C@@]2(C)[C@H]([C@H](OC(=O)c3ccccc3)[C@]3(O)C[C@H](OC(=O)[C@H](O)[C@@H](NC(=O)c4ccccc4)c4ccccc4)C(C)=C1C3(C)C)[C@]1(OC(C)=O)CO[C@@H]1C[C@@H]2O + Cc1cnc(CNC(=O)c2c(=O)c3ccc(N4CCCN(C)CC4)nc3n3c2sc2ccccc23)cn1"
  viability, T/C (%): 23.3
- compound: "COc1cc(C2c3cc4c(cc3C(OC3OC5COC(C)OC5C(O)C3O)C3COC(=O)C23)OCO4)cc(OC)c1O (stereo unspecified) + Cc1[nH]c2ccc(F)cc2c1-c1nc2c3cccnc3c3ncccc3c2[nH]1"
  viability, T/C (%): 87.4
- compound: "CC(C)(O)C1CCC(Nc2ccc3ncc(-c4cccc(C(F)(F)F)c4)n3n2)CC1 (stereo unspecified) + Cc1[nH]c2ccc(F)cc2c1-c1nc2c3cccnc3c3ncccc3c2[nH]1"
  viability, T/C (%): 82.9
